The following binders are listed with their measured Y1RBA values.
Biological target: T1, neuropeptide Y1 receptor, P25929
T1 chain: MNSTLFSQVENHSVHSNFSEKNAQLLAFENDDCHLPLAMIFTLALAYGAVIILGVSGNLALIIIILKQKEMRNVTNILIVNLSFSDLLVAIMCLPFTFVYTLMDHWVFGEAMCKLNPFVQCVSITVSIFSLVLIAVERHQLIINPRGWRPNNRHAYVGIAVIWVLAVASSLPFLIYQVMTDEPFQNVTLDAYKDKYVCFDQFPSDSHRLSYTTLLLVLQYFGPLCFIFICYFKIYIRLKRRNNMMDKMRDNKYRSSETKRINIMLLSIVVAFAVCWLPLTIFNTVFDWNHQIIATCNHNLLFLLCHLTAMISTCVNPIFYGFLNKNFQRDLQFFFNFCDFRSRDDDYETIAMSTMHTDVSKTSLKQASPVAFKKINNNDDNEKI
Assay: radioligand competition, [125I]-hPYY, SK-N-MC membranes
ENDPOINT_NAME: Y1RBA (nM)

BINDER	ENDPOINT_NAME	ENDPOINT_VALUE
YPIKPEAPGEDASPEELAQYAAELRRYIQMLTRQRY (modifications not checked) [SEQ ID NO 347]	Y1RBA	35
APLEPVYPGDNATPEQMNKYYASLRHYLNLVTRQRY (modifications not checked) [SEQ ID NO 293]	Y1RBA	0.82
YPIKPEAPGEDASPQELAQYAADLRRYINMLTRQRY (modifications not checked) [SEQ ID NO 341]	Y1RBA	1.8
YPIKPEAPGEDASPEELNQYAASLRRYINMLTRQRY (modifications not checked) [SEQ ID NO 317]	Y1RBA	4.3
YPIRPEAPGEDASPEELAQYAADLRRYINMLTRQRY (modifications not checked) [SEQ ID NO 332]	Y1RBA	13
APLEPVYPGDNASPEELNRYYASLRHYLNLVTRQRY (modifications not checked) [SEQ ID NO 297]	Y1RBA	3.6

Source listed as patent US20100099619A1.
